Target: Guinea pig liver TGase (Cavia cutleri, UniProt P08587)
Construct: Guinea pig liver TGase; from tissue; host or cells: guinea pig liver
Sequence (P08587 2-690): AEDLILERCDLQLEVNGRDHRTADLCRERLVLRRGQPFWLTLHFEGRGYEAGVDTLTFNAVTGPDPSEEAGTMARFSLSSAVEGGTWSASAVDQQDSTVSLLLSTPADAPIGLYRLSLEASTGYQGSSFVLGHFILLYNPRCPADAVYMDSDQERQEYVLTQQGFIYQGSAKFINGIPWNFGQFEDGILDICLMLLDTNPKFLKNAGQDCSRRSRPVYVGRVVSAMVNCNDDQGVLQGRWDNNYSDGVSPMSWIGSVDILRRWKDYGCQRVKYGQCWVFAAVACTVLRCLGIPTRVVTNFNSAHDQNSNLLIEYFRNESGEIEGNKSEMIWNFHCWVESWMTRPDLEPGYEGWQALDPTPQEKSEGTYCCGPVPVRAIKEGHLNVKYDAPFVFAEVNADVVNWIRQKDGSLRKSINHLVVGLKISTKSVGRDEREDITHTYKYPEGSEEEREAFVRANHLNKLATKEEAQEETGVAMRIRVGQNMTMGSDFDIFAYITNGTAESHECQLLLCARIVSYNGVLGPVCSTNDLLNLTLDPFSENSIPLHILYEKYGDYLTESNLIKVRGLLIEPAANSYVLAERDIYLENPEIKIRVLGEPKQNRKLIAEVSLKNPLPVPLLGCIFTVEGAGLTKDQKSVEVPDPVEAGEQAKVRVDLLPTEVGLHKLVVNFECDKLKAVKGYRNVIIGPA
Test: Enzyme selectivity: inactivation of tissue type transglutaminase
Type: biochemical
Conditions: read-out: TGAse IC50; Guinea pig liver TGase; 5-min incubation at 37° C. in the absence of substrate
MEASUREMENT KIND: IC50 (µM)
Write the value in µM as a bare number.

Asked: Look up IC50: "O=C(N1CCc2ccc(S(=O)(=O)NCCCCCCNc3nsc4nccn34)cc2C1)C(F)(F)F"
Given back: 17

----------
melting point values for the molecules below.

Solved cases (2 shown):
MOLECULE: O=[N+]([O-])c1ccccc1S(=O)(=O)NCCCCCCNc1nsc2nccn12 [H / H / 2-NO2-Ph]
melting point: 113.7 to 114.6 °C

MOLECULE: Cc1ccc(F)cc1S(=O)(=O)NCCCCCCNc1nsc2nccn12 [2-Me-5-F-Ph]
melting point: 140 to 142 °C

Asked: Look up melting point: O=C(O)CCN(CCCCCCNc1nsc2nccn12)S(=O)(=O)c1ccc(F)cc1F [2 / OH / 2-F-4-F-Ph]
Given back: 97 to 100 °C

Asked: Look up melting point: Cc1c(Cl)cccc1S(=O)(=O)NCCCCCCNc1nsc2nccn12 [2-Me-3-Cl-Ph]
Given back: 151 to 153 °C

Asked: Look up melting point: Nc1ccccc1S(=O)(=O)NCCCCCCNc1nsc2nccn12 [2-NH2-Ph]
Given back: 138 to 139 °C

----------
Target: Factor XIIIa (activated FXIII) (Homo sapiens)
Construct: purchased Enzyme Research Laboratories, Ltd
Assay: Inactivation of purified Factor XIIIa (monodansylcadaverine incorporation into dimethylcasein, fluorescence)
Assay type: biochemical
Conditions: values without asterisk; purified FXIIIa, 5-min incubation; read-out: FXIIIa IC50 determined by method in Example 16
IC50 values for the compounds below.
Write the value in µM as a bare number.

Solved cases (5 shown):
SMILES: O=S(=O)(Cc1ccccc1)NCCCCCCNc1nsc2nccn12
RESULT NUMBER: 7.8
--
SMILES: O=S(=O)(NCCCCCCNc1nsc2nccn12)c1ccc(OC(F)(F)F)cc1
RESULT NUMBER: 1.6
--
SMILES: O=S(=O)(NCCCCCCNc1nsc2nccn12)c1ccc(F)cc1F
RESULT NUMBER: 1.4
--
SMILES: O=C(O)CN(CCCCCCNS(=O)(=O)c1ccccc1[N+](=O)[O-])c1nsc2nccn12
RESULT NUMBER: 0.62
--
SMILES: O=S(=O)(NCCCCCCNc1nsc2nccn12)c1cccc2ccccc12
RESULT NUMBER: 0.52

Please find the next compound below.
Asked: Look up IC50: "O=C(N1CCc2ccc(S(=O)(=O)NCCCCCCNc3nsc4nccn34)cc2C1)C(F)(F)F"
Given back: 11

----------
Biological target: Factor XIIIa (activated FXIII) (Homo sapiens, UniProt P00488)
Construct: purchased Enzyme Research Laboratories, Ltd
Sequence (P00488 39-732 limits assumed): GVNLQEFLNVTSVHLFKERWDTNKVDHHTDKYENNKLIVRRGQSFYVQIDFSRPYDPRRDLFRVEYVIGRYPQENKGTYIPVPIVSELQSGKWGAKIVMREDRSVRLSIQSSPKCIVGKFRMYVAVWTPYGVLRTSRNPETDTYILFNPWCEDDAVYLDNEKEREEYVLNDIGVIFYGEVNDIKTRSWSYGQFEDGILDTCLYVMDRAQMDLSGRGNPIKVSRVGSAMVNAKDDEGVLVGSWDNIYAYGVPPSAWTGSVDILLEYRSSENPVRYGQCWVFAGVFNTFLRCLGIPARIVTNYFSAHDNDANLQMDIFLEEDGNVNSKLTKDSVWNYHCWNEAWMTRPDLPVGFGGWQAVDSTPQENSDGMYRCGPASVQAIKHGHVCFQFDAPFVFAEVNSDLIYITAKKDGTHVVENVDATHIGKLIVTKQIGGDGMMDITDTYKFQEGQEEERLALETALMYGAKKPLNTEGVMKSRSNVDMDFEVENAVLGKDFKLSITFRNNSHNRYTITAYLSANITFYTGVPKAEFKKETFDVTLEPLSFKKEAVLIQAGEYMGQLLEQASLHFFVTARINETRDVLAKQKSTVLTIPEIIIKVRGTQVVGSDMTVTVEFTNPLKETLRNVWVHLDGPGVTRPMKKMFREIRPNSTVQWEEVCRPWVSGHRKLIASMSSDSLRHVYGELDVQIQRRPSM
Assay: Inactivation of purified Factor XIIIa (monodansylcadaverine incorporation into dimethylcasein, fluorescence)
Assay type: biochemical
Settings: purified activated FXIII; 50% enzyme inactivation after 5-min incubation with inhibitor at 37° C. in the absence of substrate; read-out: FXIIIa (IC50 in μM)
MEASUREMENT KIND: IC50 (µM)
Write the value in µM as a bare number.

Solved cases (3 shown):
COMPOUND: Cc1ccc(S(=O)(=O)N[C@@H](CCCCNc2nsc3nccn23)C(=O)NCc2ccc(F)cc2)cc1
TARGET OR SYSTEM: Factor XIIIa (activated FXIII) (Homo sapiens, UniProt P00488)
IC50 / µM: 6.7

COMPOUND: O=S(=O)(NCCCCCCNc1nsc2nccn12)c1ccc(-c2ccccc2)cc1
TARGET OR SYSTEM: Factor XIIIa (activated FXIII) (Homo sapiens, UniProt P00488)
IC50 / µM: 1.3

COMPOUND: O=C(O)CCN(CCCCCCNc1nsc2nccn12)S(=O)(=O)c1ccc(F)cc1F
TARGET OR SYSTEM: Factor XIIIa (activated FXIII) (Homo sapiens, UniProt P00488)
IC50 / µM: 5.2

Asked: Look up IC50: "O=C(O)CCCCCN(CCCCCCNc1nsc2nccn12)S(=O)(=O)c1ccc(F)cc1F"
Given back: 6.8

Asked: Look up IC50: "O=[N+]([O-])c1cc(C(F)(F)F)ccc1S(=O)(=O)NCCCCCCNc1nsc2nccn12"
Given back: 0.77

Asked: Look up IC50: Cc1ccc(S(=O)(=O)NC(CCCCNc2nsc3nccn23)C(N)=O)cc1 (centres unmarked)
Given back: 9.1

Asked: Look up IC50: "NC(=O)CCN(CCCCCCNc1nsc2nccn12)S(=O)(=O)c1ccc(F)cc1F"
Given back: 8.9

Asked: Look up IC50: "COc1cc(C)ccc1S(=O)(=O)NCCCCCCNc1nsc2nccn12"
Given back: 24

----------
Molecular target: Guinea pig liver TGase (Cavia cutleri, UniProt P08587)
Construct: Guinea pig liver TGase; from tissue; host or cells: guinea pig liver
Assay: Enzyme selectivity: inactivation of tissue type transglutaminase
Type: biochemical
Details: TGAse IC50, Guinea pig liver TGase; 5-min incubation at 37° C. in the absence of substrate
MEASUREMENT KIND: pIC50
Answer as the number alone; pIC50 is minus log10 of concentration in mol/L.

Solved cases (3 shown):
MOLECULE: O=C(O)CN(CCCCCCNS(=O)(=O)c1ccccc1[N+](=O)[O-])c1nsc2nccn12 [H / CH2CO2H / 2-NO2-Ph]
RESULT NUMBER: 4.77
--
MOLECULE: CN(CCCCCCNS(=O)(=O)c1ccccc1[N+](=O)[O-])c1nsc2nccn12 [2-NO2-Ph / CH3]
RESULT NUMBER: 5.21
--
MOLECULE: O=S(=O)(NCCCCCCNc1nsc2nccn12)c1ccc(F)cc1F [2,4-diF-Ph]
RESULT NUMBER: 4.64

Asked: Look up pIC50: O=S(=O)(Cc1ccccc1)NCCCCCCNc1nsc2nccn12 [2 / CH2Ph]
Given back: 4.57

Asked: Look up pIC50: O=S(=O)(NCCCCCCNc1nsc2nccn12)c1cccc2ccccc12 [1-naphthyl]
Given back: 4.64

Asked: Look up pIC50: O=S(=O)(NCCCCCCNc1nsc2nccn12)c1ccc(OC(F)(F)F)cc1 [4-OCF3-Ph]
Given back: 4.51

----------
Biological target: Factor XIIIa (activated FXIII) (Homo sapiens)
Construct: purchased Enzyme Research Laboratories, Ltd
Experiment: Inactivation of purified Factor XIIIa (monodansylcadaverine incorporation into dimethylcasein, fluorescence)
Type: biochemical
Conditions: purified activated FXIII; 50% enzyme inactivation after 5-min incubation with inhibitor at 37° C. in the absence of substrate; read-out: FXIIIa (IC50 in μM)
IC50 values for the molecules below.
Write the value in µM as a bare number.

Solved cases (5 shown):
SMILES: CN(CCCCCCNc1nsc2nccn12)S(=O)(=O)c1cccc2ccccc12
MEASUREMENT KIND: IC50
RESULT NUMBER: 2.4

SMILES: NC(=O)CN(CCCCCCNc1nsc2nccn12)S(=O)(=O)c1cccc2ccccc12
MEASUREMENT KIND: IC50
RESULT NUMBER: 6

SMILES: Cc1ccc(F)cc1S(=O)(=O)NCCCCCCNc1nsc2nccn12
MEASUREMENT KIND: IC50
RESULT NUMBER: 10

SMILES: O=C(O)CN(CCCCCCNS(=O)(=O)c1ccccc1[N+](=O)[O-])c1nsc2nccn12
MEASUREMENT KIND: IC50
RESULT NUMBER: 0.62

SMILES: O=C(O)c1cccc(S(=O)(=O)NCCCCCCNc2nsc3nccn23)c1
MEASUREMENT KIND: IC50
RESULT NUMBER: 13.7

Asked: Look up IC50: "COC(=O)[C@H](CCCCNc1nsc2nccn12)NS(=O)(=O)c1ccc(C)cc1"
Given back: 7

Asked: Look up IC50: "O=S(=O)(NCCCCCCNc1nsc2nccn12)c1ccc2ccccc2c1"
Given back: 1.3

Asked: Look up IC50: "CCOC(=O)CCN(CCCCCCNc1nsc2nccn12)S(=O)(=O)c1ccc(F)cc1F"
Given back: 6.8

Asked: Look up IC50: "CNC(=O)c1ccccc1S(=O)(=O)NCCCCCCNc1nsc2nccn12"
Given back: 13.8

Asked: Look up IC50: "CN(CCCCCCN(C)S(=O)(=O)c1ccccc1[N+](=O)[O-])c1nsc2nccn12"
Given back: 0.6

Asked: Look up IC50: "CCOC(=O)CN(CCCCCCNc1nsc2nccn12)S(=O)(=O)c1cccc2ccccc12"
Given back: 7.4

Asked: Look up IC50: "Cc1cc(C)c(S(=O)(=O)NCCCCCCNc2nsc3nccn23)c(C)c1"
Given back: 1.3

Asked: Look up IC50: "O=S(=O)(NCCCCCCNc1nsc2nccn12)c1ccc(Br)cc1OC(F)(F)F"
Given back: 0.42

Asked: Look up IC50: "Cc1ccc(S(=O)(=O)N[C@@H](CCCCNc2nsc3nccn23)C(=O)O)cc1"
Given back: 6.7

Asked: Look up IC50: "N#Cc1ccccc1S(=O)(=O)NCCCCCCNc1nsc2nccn12"
Given back: 2.7

Asked: Look up IC50: "O=S(=O)(NCCCCCCNc1nsc2nccn12)c1ccc(F)cc1Cl"
Given back: 0.6
